// data source = the supplement of paper PMC10127200

# Test system: OVCAR4
# Protocol Details: Euclidean distance of Cell Painting phenotypic profile (signed KS, 77 features) to DMSO centroid (dimensionless distance); 5 or 10 uM (library dependent); higher = stronger phenotypic change vs DMSO (phenoactivity)
# Condition Context: 48 h
Counter-ions that a name gives are not always drawn.

{"Compound": "COc1cc(C(=O)NC2CCCNC2)cc(OC)c1OC (stereo not drawn) [Troxipide]", "Euclidean distance": 1.43}
{"Compound": "CC(C)(CO)[C@@H](O)C(=O)NCCC(=O)O [D-Pantothenate Sodium]", "Euclidean distance": 1.33}
{"Compound": "CC1(C)Cc2c(-c3ccccc3)c(-c3ccc(Cl)cc3)c(CC(=O)O)n2C1 [Licofelone]", "Euclidean distance": 1.41}
{"Compound": "COc1ccc(/C=C\\c2cc(OC)c(OC)c(OC)c2)cc1O [Combretastatin A4]", "Euclidean distance": 2.83}
{"Compound": "O=C(NOCC(O)CO)c1cc(Br)c(F)c(F)c1Nc1ccc(I)cc1F (stereo not drawn)", "Euclidean distance": 1.17}
{"Compound": "Nc1nc(N)c2nc(-c3ccccc3)c(N)nc2n1 [Triamterene]", "Euclidean distance": 1.29}
{"Compound": "Nc1nc2[nH]cc(CCc3ccc(C(=O)N[C@@H](CCC(=O)O)C(=O)O)cc3)c2c(=O)[nH]1 [Pemetrexed Disodium Hydrate]", "Euclidean distance": 2.8}
{"Compound": "N#Cc1cc(NC(=O)C(=O)O)c(Cl)c(NC(=O)C(=O)O)c1 [Lodoxamide Tromethamine]", "Euclidean distance": 1.01}
{"Compound": "CN(C)C(=O)C(CCN1CCC(O)(c2ccc(Cl)cc2)CC1)(c1ccccc1)c1ccccc1 [Loperamide HCl]", "Euclidean distance": 1.42}
{"Compound": "CCCC1O[C@@H]2C[C@H]3[C@@H]4CCC5=CC(=O)C=C[C@]5(C)[C@H]4[C@@H](O)C[C@]3(C)[C@]2(C(=O)CO)O1 (stereo partly drawn) [Budesonide]", "Euclidean distance": 2.47}
{"Compound": "Nc1nccc2c1ncn2C1C=C(CO)C(O)C1O (stereo not drawn) [3-Deazaneplanocin A (DZNeP)]", "Euclidean distance": 1.72}
{"Compound": "C/C=C\\c1ccc(O)c(OC)c1 [Isoeugenol]", "Euclidean distance": 0.903}
{"Compound": "Cc1ccc(S(=O)(=O)n2c(N)nc3ccccc32)cc1 [ML130 (Nodinitib-1)]", "Euclidean distance": 0.774}
